Data credit: patent US20250243286A1

Target: ActRIIA and ActRIIB (on TGFB/SMAD SBE Reporter HEK293 cells) (human)
Sequence (chain, as listed by the source, chain 1 of 2): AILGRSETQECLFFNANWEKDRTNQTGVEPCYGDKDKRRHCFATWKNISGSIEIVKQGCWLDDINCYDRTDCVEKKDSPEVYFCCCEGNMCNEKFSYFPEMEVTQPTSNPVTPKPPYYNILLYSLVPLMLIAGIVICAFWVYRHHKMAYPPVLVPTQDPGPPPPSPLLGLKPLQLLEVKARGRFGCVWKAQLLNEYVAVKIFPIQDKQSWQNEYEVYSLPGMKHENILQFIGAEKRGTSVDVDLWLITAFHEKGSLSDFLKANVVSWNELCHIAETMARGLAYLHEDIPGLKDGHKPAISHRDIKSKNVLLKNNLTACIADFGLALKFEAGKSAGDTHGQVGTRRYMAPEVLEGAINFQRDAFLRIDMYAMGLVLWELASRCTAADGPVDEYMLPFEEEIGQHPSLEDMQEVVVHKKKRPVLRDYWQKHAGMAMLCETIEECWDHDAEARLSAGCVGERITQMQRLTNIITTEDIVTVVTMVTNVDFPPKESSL
Sequence (chain, as listed by the source, chain 2 of 2): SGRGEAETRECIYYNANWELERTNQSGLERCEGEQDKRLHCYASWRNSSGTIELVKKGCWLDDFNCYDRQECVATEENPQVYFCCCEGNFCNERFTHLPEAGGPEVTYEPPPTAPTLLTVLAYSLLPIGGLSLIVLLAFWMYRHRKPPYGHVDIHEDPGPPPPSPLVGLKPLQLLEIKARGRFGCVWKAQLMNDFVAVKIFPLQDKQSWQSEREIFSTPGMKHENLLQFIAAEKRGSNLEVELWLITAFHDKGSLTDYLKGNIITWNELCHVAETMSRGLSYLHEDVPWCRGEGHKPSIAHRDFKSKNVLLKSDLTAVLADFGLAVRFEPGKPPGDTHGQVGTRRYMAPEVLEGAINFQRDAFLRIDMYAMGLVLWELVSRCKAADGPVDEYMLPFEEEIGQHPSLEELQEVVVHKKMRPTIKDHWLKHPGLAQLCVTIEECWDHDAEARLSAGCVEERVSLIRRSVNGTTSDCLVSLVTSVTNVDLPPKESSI
Assay: cell-based or functional assay
PROPERTY_NAME: IC99, Activin SMAD RGA (nM)
Reply numerically in nM, unit not repeated.

* Antibody Ofaschlupfer (antibody, V domains shown, full-length IgG) VH: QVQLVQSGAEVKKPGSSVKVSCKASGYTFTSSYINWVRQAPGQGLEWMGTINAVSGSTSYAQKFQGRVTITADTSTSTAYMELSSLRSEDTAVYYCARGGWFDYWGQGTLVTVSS VL: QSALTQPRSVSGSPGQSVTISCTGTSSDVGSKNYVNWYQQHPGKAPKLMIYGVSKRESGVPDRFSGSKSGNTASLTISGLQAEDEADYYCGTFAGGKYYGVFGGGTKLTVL | 28.1

Any idea what its IC99, Activin SMAD RGA is? The binder is Bimagrumab (antibody, V domains shown) VH: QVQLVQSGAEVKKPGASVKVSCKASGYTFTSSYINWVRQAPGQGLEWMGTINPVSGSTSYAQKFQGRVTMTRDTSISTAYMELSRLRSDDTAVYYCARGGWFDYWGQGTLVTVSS VL: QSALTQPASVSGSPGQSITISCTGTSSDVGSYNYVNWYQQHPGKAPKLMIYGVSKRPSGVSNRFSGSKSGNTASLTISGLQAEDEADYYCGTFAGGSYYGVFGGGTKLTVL
829

IC99, Activin SMAD RGA for Antibody Soidawürstle (antibody, V domains shown, full-length IgG; also called Soidawüsrstel) VH: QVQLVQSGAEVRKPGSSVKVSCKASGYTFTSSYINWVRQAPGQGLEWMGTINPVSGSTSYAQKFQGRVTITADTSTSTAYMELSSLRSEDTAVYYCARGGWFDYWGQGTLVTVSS VL: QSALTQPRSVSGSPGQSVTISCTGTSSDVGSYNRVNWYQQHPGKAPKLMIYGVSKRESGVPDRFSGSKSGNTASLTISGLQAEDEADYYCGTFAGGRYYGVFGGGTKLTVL ?
200

Consider the binder shown here: Antibody Schwardamaga (antibody, V domains shown, full-length IgG) VH: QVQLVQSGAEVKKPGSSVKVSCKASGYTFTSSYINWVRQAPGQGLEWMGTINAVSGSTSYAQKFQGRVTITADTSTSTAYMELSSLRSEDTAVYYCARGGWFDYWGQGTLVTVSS VL: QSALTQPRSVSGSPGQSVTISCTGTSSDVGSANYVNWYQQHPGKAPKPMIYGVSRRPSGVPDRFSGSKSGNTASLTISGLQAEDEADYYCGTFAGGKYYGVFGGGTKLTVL What is its recorded IC99, Activin SMAD RGA?
124
